Documented pIC50 (FF) across a set of compounds
# test.target: RORγ (UniProt P51449)
# assay.protocol: RORγ Gal4 Reporter Gene Assay in 293T cells (firefly and renilla luciferase)
# Assay type: cell-based, human

# compound, test.target, pIC50 (FF)
rows = [
    ("Cc1c(C(=O)NCCC[S+](C)[O-])cc(-c2cc(C(C)(C)C)c3c(c2)C2(CCO3)CC2)n1CC1CCCCC1 (stereo not shown) [17/2]", "RORγ (UniProt P51449)", "6.0/6.6/6.5"),
    ("Cc1c(C(=O)NC2CCOCC2)cc(-c2ccc(-c3nnc(C(C)(C)C)o3)c(C(C)(C)C)c2)n1CC1CCCCC1 [17/251]", "RORγ (UniProt P51449)", "6.3/6.9/6.9"),
    ("Cc1c(C(=O)NCCC(C)(C)C(=O)O)cc(-c2cc(C(C)(C)C)cc(C(F)(F)F)c2)n1CC1CCCCC1 [17/305]", "RORγ (UniProt P51449)", "5.7/6.8/6.7"),
    ("Cc1c(C(N)=O)cc(-c2cc(C(C)(C)C)c3c(c2)C2(CCO3)CC2)n1CC1CCCCC1 [1/105]", "RORγ (UniProt P51449)", "6.6/6.5/6.5"),
]
